Tested on: LUHMES cells
test_name: Intracellular ATP content after NeuriTox exposure
Type: cell-based
protocol_conditions: Homo sapiens; NeuriTox exposure scheme, 24 h; read-out: LUHMES 24 h EC25 ATP (converted)
Would you mind telling me the reported EC25 of each entry?

Completed entries (count: 2):
- molecule: "CC1=C(C(=O)Nc2ccccc2)SCCO1 [Carboxin]"
  measured_target: "LUHMES cells"
  EC25: "> 100 µM"
- molecule: "CSC1=N[C@@](C)(c2ccccc2)C(=O)N1Nc1ccccc1 [Fenamidone]"
  measured_target: "LUHMES cells"
  EC25: "> 50.1 µM"

What value of measured EC25 is listed for Cc1ccccc1C(=O)Nc1cccc(OC(C)C)c1 [Mepronil] ?
> 100 µM

Data origin: paper PMC7870626
